Quick record of IC50 values for Amine oxidase [flavin-containing] B (Homo sapiens, UniProt P27338).

| STRUCTURE_STRING | READING_UNIT | IC50 |
| --- | --- | --- |
| N#C/C(=C\C=C\c1ccc(O)c(O)c1)C(=O)NCCc1ccccc1 | µM | 4.38 |
| N#C/C(=C\C=C\c1ccc(O)c(O)c1)C(=O)Nc1ccccc1 | µM | 4.55 |
| O=C(/C=C/C=C/c1ccc(O)c(O)c1)N1CCCCC1 | µM | 2.5 |

###

Assay: Oxidation potential of compound at pH 7.3 by differential pulse voltammetry analysis
Type: physicochemical
OBSERVED_PROPERTY: Ep (mV)

| STRUCTURE_STRING | OBSERVED_PROPERTY | READING_UNIT | NUMERIC_RESULT |
| --- | --- | --- | --- |
| N#C/C(=C\C=C\c1ccc(O)c(O)c1)C(=O)NCc1ccccc1 | Ep | mV | 174 |
| O=C(O)/C=C/c1ccc(O)c(O)c1 | Ep | mV | 168 |
| O=C(/C=C/C=C/c1ccc(O)c(O)c1)NCc1ccccc1 | Ep | mV | 129 |
| N#C/C(=C\C=C\c1ccc(O)c(O)c1)C(=O)NCCc1ccccc1 | Ep | mV | 163 |
| O=C(/C=C/C=C/c1ccc(O)c(O)c1)Nc1ccccc1 | Ep | mV | 114 |
